So I've got a bunch of binders here, and I need their pIC50 values.
# tgt: T1, Human VEGF-A 165 (human, UniProt P15692 207-395)
# T1 construct: Recombinant; also called huVEGF-A165; hVEGF165
# assay-remarks: receptor competition ELISA, hVEGF165 binding to coated hVEGF-R2-Fc
pIC50 is a log-scale quantity: -log10 of the concentration expressed in molar.

// query Reported pIC50, binder BEW-8E6-E4 (antibody, IgG2a, V domains shown, Rat hybridoma antibody, isotype IgG2a/kappa) VH: QIQLVQSGPELKKPGESVKISCKASGYTFTDYAMHWVKQAPGKVLKWMGWINTFTGKPTYIDDFKGRFVFSLEASASTANLQISDLKNEDTATYFCARGNYYSGYWYFDFWGPGTMVTMSS VL: DIQMTQSPASLSASLGETISIECRASEDISSNLAWYQQKSGKSPQLLIFAANRLQDGVPSRFSGSGSGTQFSLKISGMQPEDEGDYFCLQGSKFYTFGAGTKLELK : ____
// result 9.47

// query Reported pIC50, binder BEW-5C3-E7 (antibody, IgG2b, V domains shown, Rat hybridoma antibody, isotype IgG2b/kappa) VH: QIQLVQSGPELKKPGESVKISCKASGYTFTNYGVYWVKQAPGQGLQYMGWINTETGKPTYADDFKGRFVFFLETSTNTAYLQINNLKNEDMATFFCARARQLDWFVYWGQGTLVTVSS VL: DTVLTQSPALTVSPGERVSISCRARESLTTSLCWFQQKPGQQPKLLIYGASKLESGVPARFSGSGSGTDFTLTIDPVEADDTATYFCQQSWYDPPTFGGGTKLELK : ____
// result 9.81

// query Reported pIC50, binder BEW-164-C4 (antibody, IgG2b, V domains shown, Rat hybridoma antibody, isotype IgG2b/kappa; also called BEW-1B4-C4) VH: QIQLVQSGPELKKPGESVKISCKASGYSFTNYGMYWVKQAPGQGLQYMGWIDTETGKPTYTDDFKGRFVFFLETSASTAYLQINNLKNEDMATYFCARWSGDTAGIRGPWFAYWGQGTLVTVSS VL: DIRMTQSPASLSASLGETVNIECLASEDIYSDLAWYQQKPGKSPQLLIYNANDLQKGVPSRFSGSGSGTQYSLKINSLQSEDVATYFCQQYNYYPGTFGAGTKLELK : ____
// result 9.74

// query Reported pIC50, binder BEW-9E10-E7 (antibody, IgG2a, V domains shown, Rat hybridoma antibody, isotype IgG2a/kappa) VH: QIQLLQSGPELKKPGESVKISCKASGYTFTNYGMYWVKQAPGQGLQYMGWIDTETGRPTYADDFKGRFVFFLETSASTAYLQINNLKNEDMATYFCARWSGDTTGIRGPWFAYWGQGTLVTVSS VL: DIRMTQSPASLSASLGETVNIECLASEDIYSDLAWYQQKPGRSPQLLIYNANGLQNGVPSRFGGSGSGTQYSLKINSLQSEDVATYFCQQYNYFPGTFGAGTKLELK : ____
// result 9.56

// query Reported pIC50, binder BEW-6C2-C8 (antibody, IgG2b, V domains shown, Rat hybridoma antibody, isotype IgG2b/kappa) VH: EVQLVESGGGLVQPGSSLKLSCAASGFTFSYYGMHWIRQAPKKGLEWMALIYYDSSKMYYADSVKGRFTISRDNSKNTLYLEMNSLRSEDTAMYYCAAGGTAPVYWGQGVMVTVSS VL: NIQLTQSPSLLSASVGDRVTLSCKGSQNIANYLAWYQQKLGEAPKLLIYNTDSLQTGIPSRFSGSGSGTDYTLTISSLQPEDVATYFCYQSNNGYTFGAGTKLELR : ____
// result 9.71

// query Reported pIC50, binder BEW-1E3-D6 (antibody, IgG2b, V domains shown, Rat hybridoma antibody, isotype IgG2b/kappa) VH: QIQLVQSGPELKKPGESVKISCKASGYPFTNSGMYWVKQAPGQGLQYMGWINTEAGKPTYADDFKGRFVFFLETSASTAYLQINNLKNEDMATYFCARWGYISDNSYGWFDYWGQGTLVTVSS VL: DTVLTQSPALAVSPGERVSISCRASEGVYSYMHWYQQNPGQQPKLLIYKASNLASGVPARFSGSGSGTDFTLTIDPVEADDTATYFCHQNWNDPLTFGSGTKLEIK : ____
// result 9.21

// query Reported pIC50, binder BEW-9E3-B9 (antibody, IgG2a, V domains shown, Rat hybridoma antibody, isotype IgG2a/kappa) VH: QIQLVQSGPELKKPGESVKISCKASGYTFTNYGMYWVKQAPGQGLQYMGWINTETGKPTYADDFKGRFVFFLETSASTAFLQINNLKNEDMATYFCARPSDYYDGFWFPYWGQGALVTVSS VL: DTILTQSPALAVSPGERISISCRASEGVNSYMHWYQQNPGQQPKLLIYKASNLASGVPARFSGSGSGTDFTLTIDPVEADDTATYFCQQSWNDPLTFGSGTKLEIK : ____
// result 9.91

// query Reported pIC50, binder BEW-10H2-B9 (antibody, IgG2b, V domains shown, Rat hybridoma antibody, isotype IgG2b/kappa) VH: QIQLVQSGPELKKPGESVKISCKASGYSFTNFGLYWVKQAPGQGLQYMGWIDTETGKPTYADDFRGRFVFFLETSASTAYLQINNLKNEDMATYFCARVYGYPSWYFDFWGPGTMVTVSS VL: DIQMTQSPASLSTSLEEIVTITCQASQDIDNYLSWYQQKPGKSPQLLIHSATSLADGVPSRFSGSRSGTQFSLKIHRLQVEDTGIYYCLQHFFPPWTFGGGTKLELK : ____
// result 9.38

// query Reported pIC50, binder BEW-9A8-E2 (antibody, IgG2a, V domains shown, Rat hybridoma antibody, isotype IgG2a/kappa) VH: QIQLVQSGPELKKPGESVKISCKASGYTFTNYGMYWVKQAPGQGLQYMGWINTETGKPIYADDFKGRFVFFLETSASTAYLQINNLKNEDMATFFCARVDYDGSFWFAYWGQGTLVTVSS VL: DTVLTQSPALAVSPGERVSISCRASESVSTVIHWYQQKPGQQPKLLIHGASNLESGVPARFSGSGSGTDFTLTIDPVEADDTATYFCQQHWNDPPTFGAGTKLEMK : ____
// result 9.60

// data source = patent US20170015742A1
